# ASSAY REMARKS: Cytotoxicity against HEK293 cells assessed as reduction in cell viability after 48 hrs by MTT assay
# Format: toxicity, cell-based
# TEST PARAMETERS: human
TEST READOUT: IC50 at 48 h (µM)
Write the number in µM without appending the unit.

Record excerpt, results attached:
[
  {
    "STRUCTURE SMILES STRING": "COc1cc(NC(=O)c2ccc3ccccc3c2)ccc1S(N)(=O)=O",
    "MEASURED": 18
  },
  {
    "STRUCTURE SMILES STRING": "COc1cc(NC(=O)c2ccc3c(c2)OCO3)ccc1S(N)(=O)=O",
    "MEASURED": 8.8
  },
  {
    "STRUCTURE SMILES STRING": "COc1cc(NC(=O)c2ccc(Br)cc2)ccc1S(N)(=O)=O",
    "MEASURED": 86.8
  },
  {
    "STRUCTURE SMILES STRING": "COc1cc(NC(=O)c2cccc(Br)c2)ccc1S(N)(=O)=O",
    "MEASURED": 48.6
  },
  {
    "STRUCTURE SMILES STRING": "CCc1ccc(C(=O)Nc2ccc(S(N)(=O)=O)c(OC)c2)cc1",
    "MEASURED": 5.69
  }
]

# evaluate next
Lookup: Reported IC50 at 48 h for COc1cc(NC(=O)c2ccc(Cl)c(Cl)c2)ccc1S(N)(=O)=O : what is it?
Found: 22.4
